- test.system: Gal(b1-3)[Fuc(a1-4)]GlcNAc(b1-6)GalNAc
- assay.method.text: glycan array binding signal (z-score within array); higher = stronger binding
- experimental.context: glycan notation: IUPAC condensed, linker removed
The full list was thinned out, with the strongest signals kept by preference.
property.label: glycan array binding signal (z-score)
Response field accepts a number only; no unit should be typed.

Given item Gal 8 (Mus musculus), Q9JL15 (protein) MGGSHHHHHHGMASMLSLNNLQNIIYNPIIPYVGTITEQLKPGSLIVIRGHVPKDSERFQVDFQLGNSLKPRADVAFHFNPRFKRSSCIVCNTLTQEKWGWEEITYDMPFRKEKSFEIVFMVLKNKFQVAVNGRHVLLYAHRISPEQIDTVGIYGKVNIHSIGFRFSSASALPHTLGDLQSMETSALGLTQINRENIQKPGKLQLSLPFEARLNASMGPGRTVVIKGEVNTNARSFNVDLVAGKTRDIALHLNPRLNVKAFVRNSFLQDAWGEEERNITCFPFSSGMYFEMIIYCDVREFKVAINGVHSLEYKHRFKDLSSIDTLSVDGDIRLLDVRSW , the value recorded as its glycan array binding signal (z-score) is -0.515

Given item ERGIC1-EDTA (Homo sapiens), Q969X5 (protein) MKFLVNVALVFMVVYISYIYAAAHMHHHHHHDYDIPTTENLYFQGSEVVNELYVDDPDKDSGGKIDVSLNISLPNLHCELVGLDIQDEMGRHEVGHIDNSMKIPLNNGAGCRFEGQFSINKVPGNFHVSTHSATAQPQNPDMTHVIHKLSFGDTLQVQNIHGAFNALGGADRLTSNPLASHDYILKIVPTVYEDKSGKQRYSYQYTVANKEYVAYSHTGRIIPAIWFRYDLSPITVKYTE , the value recorded as its glycan array binding signal (z-score) is -0.044
